- measurementDescription: Open-label multiple-dose PK, safety and tolerability study of NTZ 500 mg BID for 7 days in subjects with moderate or severe hepatic impairment vs normal hepatic function
- statedConditions: both, human, blood, oral, 500 mg, Cmax GM, total TZ; all groups combined (Total); DAY 1, single 500 mg NTZ dose
metric: Cmax (µM)

# compound, readoutValue
rows = [
    ("O=C(Nc1ncc([N+](=O)[O-])s1)c1ccccc1O [TZ, tizoxanide]", 24.8),
]

* * *

- measurementDescription: Open-label multiple-dose PK, safety and tolerability study of NTZ 500 mg BID for 7 days in subjects with moderate or severe hepatic impairment vs normal hepatic function
- statedConditions: both, human, blood, oral, 500 mg, AUC0-t GM, total TZ; steady state after NTZ 500 mg BID 7 days; Moderate (CP B)

# compound, AUC(0-t) [µM·h]
rows = [
    ("O=C(Nc1ncc([N+](=O)[O-])s1)c1ccccc1O [TZ, tizoxanide]", 150),
]

* * *

- measurementDescription: Open-label multiple-dose PK, safety and tolerability study of NTZ 500 mg BID for 7 days in subjects with moderate or severe hepatic impairment vs normal hepatic function
- statedConditions: both, human, blood, oral, 500 mg, AUC0-12 GM, total TZ; all groups combined (Total); DAY 1, single 500 mg NTZ dose

# compound, AUC(0-t) [µM·h]
measured = [
    ("O=C(Nc1ncc([N+](=O)[O-])s1)c1ccccc1O [TZ, tizoxanide]", 115),
]

* * *

- measurementDescription: Open-label multiple-dose PK, safety and tolerability study of NTZ 500 mg BID for 7 days in subjects with moderate or severe hepatic impairment vs normal hepatic function
- statedConditions: both, human, blood, oral, 500 mg, Cmax GM, total TZ; all groups combined (Total); DAY 7, NTZ 500 mg BID

# compound, Cmax [µM]
records = [
    ("O=C(Nc1ncc([N+](=O)[O-])s1)c1ccccc1O [TZ, tizoxanide]", 34.7),
]

* * *

- measurementDescription: Open-label multiple-dose PK, safety and tolerability study of NTZ 500 mg BID for 7 days in subjects with moderate or severe hepatic impairment vs normal hepatic function
- statedConditions: both, human, blood, oral, 500 mg, GM t1/2, Day 7; severe impairment group
metric: half-life (h)

# compound, metric, readoutValue
records = [
    ("O=C(Nc1ncc([N+](=O)[O-])s1)c1ccccc1O [TZ, tizoxanide]", "half-life", 4),
]

* * *

- measurementDescription: Open-label multiple-dose PK, safety and tolerability study of NTZ 500 mg BID for 7 days in subjects with moderate or severe hepatic impairment vs normal hepatic function
- statedConditions: both, human, blood, oral, 500 mg, Cmax GM, total TZ; steady state after NTZ 500 mg BID 7 days; Moderate (CP B)

# compound, Cmax (µM)
rows = [
    ("O=C(Nc1ncc([N+](=O)[O-])s1)c1ccccc1O [TZ, tizoxanide]", 28.2),
]

* * *

- measurementDescription: Open-label multiple-dose PK, safety and tolerability study of NTZ 500 mg BID for 7 days in subjects with moderate or severe hepatic impairment vs normal hepatic function
- statedConditions: both, human, blood, oral, 500 mg, AUC0-t GM, total TZ; steady state after NTZ 500 mg BID 7 days; Control group (normal hepatic function)

# compound, AUC(0-t) (µM·h)
records = [
    ("O=C(Nc1ncc([N+](=O)[O-])s1)c1ccccc1O [TZ, tizoxanide]", 165),
]

* * *

- measurementDescription: Open-label multiple-dose PK, safety and tolerability study of NTZ 500 mg BID for 7 days in subjects with moderate or severe hepatic impairment vs normal hepatic function
- statedConditions: both, human, blood, oral, 500 mg, GM t1/2, Day 1

# molecule, half-life
measured = [
    ("O=C(Nc1ncc([N+](=O)[O-])s1)c1ccccc1O [TZ, tizoxanide]", "~2 h"),
]

* * *

- measurementDescription: Open-label multiple-dose PK, safety and tolerability study of NTZ 500 mg BID for 7 days in subjects with moderate or severe hepatic impairment vs normal hepatic function
- statedConditions: both, human, blood, oral, 500 mg, AUC0-12 GM, total TZ; all groups combined (Total); DAY 7, NTZ 500 mg BID

# compound, AUC(0-t) [µM·h]
rows = [
    ("O=C(Nc1ncc([N+](=O)[O-])s1)c1ccccc1O [TZ, tizoxanide]", 183),
]

* * *

- measurementDescription: Open-label multiple-dose PK, safety and tolerability study of NTZ 500 mg BID for 7 days in subjects with moderate or severe hepatic impairment vs normal hepatic function
- statedConditions: both, human, in vivo, oral, 500 mg, AUC0-12 GM, total TZ; steady state after NTZ 500 mg BID 7 days; Control group (normal hepatic function)

# compound, unitAnnotation, AUC(0-t)
measured = [
    ("O=C(Nc1ncc([N+](=O)[O-])s1)c1ccccc1O [TZ, tizoxanide]", "µM·h", 162),
]

* * *

- measurementDescription: Open-label multiple-dose PK, safety and tolerability study of NTZ 500 mg BID for 7 days in subjects with moderate or severe hepatic impairment vs normal hepatic function
- statedConditions: both, human, blood, oral, 500 mg, AUC0-12 GM, total TZ; steady state after NTZ 500 mg BID 7 days; Severe (CP C)
metric: AUC(0-t) (µM·h)

# compound, metric, readoutValue
data = [
    ("O=C(Nc1ncc([N+](=O)[O-])s1)c1ccccc1O [TZ, tizoxanide]", "AUC(0-t)", 264),
]

* * *

- measurementDescription: Open-label multiple-dose PK, safety and tolerability study of NTZ 500 mg BID for 7 days in subjects with moderate or severe hepatic impairment vs normal hepatic function
- statedConditions: both, human, blood, oral, 500 mg, Cmax GM, total TZ; steady state after NTZ 500 mg BID 7 days; Severe (CP C)
metric: Cmax (µM)

# compound, metric, unitAnnotation, readoutValue
records = [
    ("O=C(Nc1ncc([N+](=O)[O-])s1)c1ccccc1O [TZ, tizoxanide]", "Cmax", "µM", 42),
]

* * *

- measurementDescription: Open-label multiple-dose PK, safety and tolerability study of NTZ 500 mg BID for 7 days in subjects with moderate or severe hepatic impairment vs normal hepatic function
- statedConditions: both, human, blood, oral, 500 mg
metric: Tmax

# molecule, metric, readoutValue
records = [
    ("O=C(Nc1ncc([N+](=O)[O-])s1)c1ccccc1O [TZ, tizoxanide]", "Tmax", "3.5 to 5 h"),
]

* * *

- measurementDescription: Open-label multiple-dose PK, safety and tolerability study of NTZ 500 mg BID for 7 days in subjects with moderate or severe hepatic impairment vs normal hepatic function
- statedConditions: both, human, blood, oral, 500 mg, Cmax GM, total TZ; steady state after NTZ 500 mg BID 7 days; Control group (normal hepatic function)

# compound, unitAnnotation, Cmax
records = [
    ("O=C(Nc1ncc([N+](=O)[O-])s1)c1ccccc1O [TZ, tizoxanide]", "µM", 35.3),
]
